B1: KLHL12 (parent)
chain: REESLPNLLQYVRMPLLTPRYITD

Variants of: B1
Assay: protein stability index of a GFP-peptide fusion (GPS, HEK-293T) (PSI 1-6); higher = more stable;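 also: lentivirally expressed fusions sorted by FACS into six bins by GFP to DsRed ratio, PSI derived from sequencing read proportions per bin multiplied by bin number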
Conditions: c terminus: a fixed tail appended
recorded.metric: protein stability index
Could you respond with only the numeric value?

residue.codes	endpoint.result
REESLPNLLQYVRMPLLTPFYITD [R20F]	1.95
REESLPNLLQYVRSPLLTPRYITD [M14S]	3.13
REESLPNLLQYVRMPLLTPRYRTD [I22R]	3.84
REESFPNLLQYVRMPLLTPRYITD [L5F]	2.16
IEESLPNLLQYVRMPLLTPRYITD [R1I]	1.83
REESLPNLLQYVRMPQLTPRYITD [L16Q]	3.12
REESLPNLLQRVRMPLLTPRYITD [Y11R]	3.21
REESLPNLLCYVRMPLLTPRYITD [Q10C]	2.39

Look up protein stability index for this variant: RVESLPNLLQYVRMPLLTPRYITD [E2V]
2.63

And REESLPNLLQCVRMPLLTPRYITD [Y11C] ?
2.82

Entry to check: REESLPNLLQYVRMPLLTPRYIVD [T23V]
2.04

And REESLPNLLQYVRMPLLTPRYITW [D24W] ?
2.11
